biological target: T1, TCE-15 (anti-CD3 scFv G105A; anti-TROP2 wt); experiment: competition ELISA, TCE on captured CD3
T1 construct: scFv on the Fab heavy chain
Where no end group is shown, it is not given here.

{"binder": "VYCGPEFDESVGCA (cysteine pairing not given here; also: biotinylated, site not given here, mask peptide for the CD3 scFv) [Peptide-73]", "uom": "nM", "IC50": 310}
